tested on: TNK1; details: concentration: 1 μM, replicates: in singlicate; n = 1;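 note: KINOMEscan kinase panel screen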
valueType: %Inh (%)
Give bare numbers, in %.

Examples with their reported %Inh follow.
Cc1ccccc1CC(=O)N1CCc2cc(-c3cn(C)c4ncnc(N)c34)ccc21 | 0
CC(C)c1nc(-c2cccc(NS(=O)(=O)c3c(F)cccc3F)c2)c(-c2ccnc(Nc3ccc(N4CCOCC4)nc3)n2)s1.Cl | 100
COC(=O)Nc1nc2cc(Oc3ccc(NC(=O)Nc4cccc(SC)c4)cc3)ccc2[nH]1.Cl | 4

Ask: Tell me the measured %Inh of `CN(C)CCNS(=O)(=O)c1ccc(-c2ccnc3[nH]ccc23)cc1` , please.
Reply: 0
